# targetOrTestSystem: GSK3β (Homo sapiens (Human), UniProt P49841)
# Sequence (P49841 whole entry): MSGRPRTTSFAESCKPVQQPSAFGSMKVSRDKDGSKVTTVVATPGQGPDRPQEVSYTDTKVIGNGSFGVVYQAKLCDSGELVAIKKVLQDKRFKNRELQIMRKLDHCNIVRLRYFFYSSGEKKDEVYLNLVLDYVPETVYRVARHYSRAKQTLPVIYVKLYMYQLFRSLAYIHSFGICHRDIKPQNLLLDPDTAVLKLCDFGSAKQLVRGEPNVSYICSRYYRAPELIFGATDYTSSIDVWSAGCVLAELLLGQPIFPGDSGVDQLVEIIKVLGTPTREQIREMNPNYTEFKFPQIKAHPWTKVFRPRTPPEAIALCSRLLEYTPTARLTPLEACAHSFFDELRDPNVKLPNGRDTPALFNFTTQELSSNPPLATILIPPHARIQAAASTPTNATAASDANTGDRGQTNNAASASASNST
# testName: GSK3 beta biochemical assay (TR-FRET)
# testSettings: GSK3β TR-FRET BIOCHEMICAL (TR-FRET) GMean IC50, 2 μM ATP (Km), 100 min at room temperature
Property: IC50; scope: individual compounds
Your answer is read as nM, so omit the unit and give the number.

CCC1(c2ccccc2)C2=C(CC(C)(C)CC2=O)Nc2ncsc21 (single isomer, unassigned) [Compound 1-E2]; 190

# get_value(readout='IC50', item= [2H]c1nc2c(s1)C(CC)(c1ccccc1)C1=C(CC(C)(C)CC1=O)N2 (stereo not drawn) [Compound 18] )
500

====

# testName: Plasma stability, human
# Format: in vitro ADME
# testSettings: human plasma, 5 μM, 5 hours at 37° C.
observationType: Plasma Stability (Human, % remaining) (%)
Your answer is read as %, so omit the unit and give the number.

CC[C@@]1(c2cccc(C)c2)C2=C(CC(C)(C)CC2=O)Nc2ncsc21 [drawing 176]; 98.9

# get_value(readout='Plasma Stability (Human, % remaining)', item= CC1(C)CC(=O)C2=C(C1)Nc1n[nH]cc1[C@]2(C)c1ccccc1 [drawing 178] )
100

# get_value(readout='Plasma Stability (Human, % remaining)', item= CC[C@@]1(c2cccc(Cl)c2)C2=C(CC(C)(C)CC2=O)Nc2ncsc21 )
98.7

# get_value(readout='Plasma Stability (Human, % remaining)', item= CC1(C)CC(=O)C2=C(C1)Nc1ncsc1[C@]2(C)c1ccccc1 [drawing 172] )
100

====

Property: pIC50; scope: individual compounds
# targetOrTestSystem: GSK3β (Homo sapiens (Human))
# testName: GSK3 beta biochemical assay (TR-FRET)
Just the number, please; pIC50 means minus log10 of the concentration in mol/L.

Here are 2 compounds together with their reported answers.
CCCC1CC(=O)C2=C(C1)Nc1ncsc1C2(CC)c1ccccc1 (stereo not shown); 6.38
CCC1(c2ccccc2)C2=C(CC(C)(C)CC2=O)Nc2nc(Cl)sc21 (stereo not shown); 5.36

// next item, pIC50 requested
# get_value(readout='pIC50', item= CCC1(c2ccccc2)C2=C(CC(C)CC2=O)Nc2ncsc21 (stereo not shown) )
6.16

====

# targetOrTestSystem: PIK3CA/PIK3R1 (Homo sapiens (Human), UniProt P42336)
# Sequence (P42336 whole entry, looked up): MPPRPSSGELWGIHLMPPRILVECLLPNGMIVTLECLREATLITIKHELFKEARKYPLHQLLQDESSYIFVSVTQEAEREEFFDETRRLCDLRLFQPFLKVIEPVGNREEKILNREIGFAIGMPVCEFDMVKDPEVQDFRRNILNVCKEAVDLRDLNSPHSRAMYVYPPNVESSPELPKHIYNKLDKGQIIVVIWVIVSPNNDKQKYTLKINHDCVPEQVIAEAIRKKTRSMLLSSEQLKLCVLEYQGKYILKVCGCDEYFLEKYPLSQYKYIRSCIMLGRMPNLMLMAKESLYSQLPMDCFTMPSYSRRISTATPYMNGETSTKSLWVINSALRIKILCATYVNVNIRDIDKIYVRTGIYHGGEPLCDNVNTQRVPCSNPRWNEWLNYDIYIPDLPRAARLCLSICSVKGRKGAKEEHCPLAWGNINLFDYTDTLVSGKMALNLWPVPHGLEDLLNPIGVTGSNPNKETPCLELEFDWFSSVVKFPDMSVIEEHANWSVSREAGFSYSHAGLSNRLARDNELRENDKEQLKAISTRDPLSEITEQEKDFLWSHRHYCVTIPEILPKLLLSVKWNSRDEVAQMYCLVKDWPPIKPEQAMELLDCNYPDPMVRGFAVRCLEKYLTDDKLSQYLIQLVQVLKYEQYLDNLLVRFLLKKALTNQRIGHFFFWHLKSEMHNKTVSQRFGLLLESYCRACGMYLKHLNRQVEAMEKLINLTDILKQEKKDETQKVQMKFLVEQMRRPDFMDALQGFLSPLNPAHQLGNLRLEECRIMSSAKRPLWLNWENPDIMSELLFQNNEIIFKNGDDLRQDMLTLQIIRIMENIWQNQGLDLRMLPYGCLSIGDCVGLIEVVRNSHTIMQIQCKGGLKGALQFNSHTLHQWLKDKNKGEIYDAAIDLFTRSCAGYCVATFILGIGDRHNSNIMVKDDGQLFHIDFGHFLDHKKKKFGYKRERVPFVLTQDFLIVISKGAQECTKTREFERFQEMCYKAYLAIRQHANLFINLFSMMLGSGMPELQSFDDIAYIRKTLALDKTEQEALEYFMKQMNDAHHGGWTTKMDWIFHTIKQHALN
# Sequence (P27986 whole entry partner, looked up): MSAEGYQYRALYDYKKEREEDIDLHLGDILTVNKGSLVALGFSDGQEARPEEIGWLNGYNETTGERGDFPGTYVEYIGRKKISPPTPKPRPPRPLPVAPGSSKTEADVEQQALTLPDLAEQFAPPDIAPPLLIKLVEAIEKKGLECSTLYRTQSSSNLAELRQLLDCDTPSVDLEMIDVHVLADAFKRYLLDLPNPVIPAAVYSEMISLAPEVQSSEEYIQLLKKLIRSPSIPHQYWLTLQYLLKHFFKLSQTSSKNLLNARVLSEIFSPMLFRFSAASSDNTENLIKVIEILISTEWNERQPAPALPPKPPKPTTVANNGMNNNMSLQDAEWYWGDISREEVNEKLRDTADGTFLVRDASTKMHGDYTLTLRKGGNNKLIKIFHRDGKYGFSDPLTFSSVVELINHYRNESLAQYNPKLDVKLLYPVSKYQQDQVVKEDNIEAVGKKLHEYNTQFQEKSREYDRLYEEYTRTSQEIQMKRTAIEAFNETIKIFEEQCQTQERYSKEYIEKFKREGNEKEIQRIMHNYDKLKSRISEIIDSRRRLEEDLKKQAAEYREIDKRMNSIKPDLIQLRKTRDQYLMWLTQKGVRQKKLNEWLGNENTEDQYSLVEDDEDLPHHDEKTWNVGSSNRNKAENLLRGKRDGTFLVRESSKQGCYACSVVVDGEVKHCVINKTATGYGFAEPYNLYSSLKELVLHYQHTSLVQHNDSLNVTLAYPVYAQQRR
# testName: Carna kinome panel
# Format: biochemical
pIC50: −log10 of the molar value.
observationType: pIC50

# get_value(readout='pIC50', item= CCC1(c2ccccc2)C2=C(CC(C)(C)CC2=O)Nc2ncsc21 (stereo not shown) [Compound 1] )
< 5.00

====

# testName: Liver microsomal stability, mouse
# Assay type: in vitro ADME, mouse (CD-1)
# testSettings: 1 μM, 60 minutes at 37° C.
Property: Mouse Liver Microsomal Stability, % remaining; scope: individual compounds
Your answer is read as %, so omit the unit and give the number.

Here are 2 compounds together with their reported answers.
CC[C@@]1(c2cccc(OC)c2)C2=C(CC(C)(C)CC2=O)Nc2ncsc21; 10.8
CC[C@@]1(c2ccccc2)C2=C(CC(C)(C)CC2=O)Nc2ncsc21 [drawing 173]; 5.6

// next item, Mouse Liver Microsomal Stability, % remaining requested
# get_value(readout='Mouse Liver Microsomal Stability, % remaining', item= CC[C@@]1(c2cccc(C)c2)C2=C(CC(C)(C)CC2=O)Nc2ncsc21 [drawing 176] )
8.2

====

# Tested on: MDR1
# testName: Additional MDCK permeability (MDR1-MDCK) assay (Example 6)
# Format: in vitro ADME
# testSettings: dog
observationType: Papp A→B at 120 min, 5 μM

# get_value(readout='Papp A→B at 120 min, 5 μM', item= CCC1(c2ccccc2)C2=C(CC(C)(C)CC2=O)Nc2ncsc21 (single isomer, unassigned) [Compound 1-E2] )
7.67 ×10⁻⁶ cm/s

====

# Tested on: MDR1
# testName: Additional MDCK permeability (MDR1-MDCK) assay (Example 6)
# Type: in vitro ADME
# testSettings: dog
observationType: Papp B→A at 120 min, 5 μM (×10⁻⁶ cm/s)
Your answer is read as ×10⁻⁶ cm/s, so omit the unit and give the number.

# get_value(readout='Papp B→A at 120 min, 5 μM', item= CCC1(c2ccccc2)C2=C(CC(C)(C)CC2=O)Nc2ncsc21 (single isomer, unassigned) [Compound 1-E2] )
24.4

====

# targetOrTestSystem: GSK3α (Homo sapiens (Human))
# Sequence (P49840 whole entry): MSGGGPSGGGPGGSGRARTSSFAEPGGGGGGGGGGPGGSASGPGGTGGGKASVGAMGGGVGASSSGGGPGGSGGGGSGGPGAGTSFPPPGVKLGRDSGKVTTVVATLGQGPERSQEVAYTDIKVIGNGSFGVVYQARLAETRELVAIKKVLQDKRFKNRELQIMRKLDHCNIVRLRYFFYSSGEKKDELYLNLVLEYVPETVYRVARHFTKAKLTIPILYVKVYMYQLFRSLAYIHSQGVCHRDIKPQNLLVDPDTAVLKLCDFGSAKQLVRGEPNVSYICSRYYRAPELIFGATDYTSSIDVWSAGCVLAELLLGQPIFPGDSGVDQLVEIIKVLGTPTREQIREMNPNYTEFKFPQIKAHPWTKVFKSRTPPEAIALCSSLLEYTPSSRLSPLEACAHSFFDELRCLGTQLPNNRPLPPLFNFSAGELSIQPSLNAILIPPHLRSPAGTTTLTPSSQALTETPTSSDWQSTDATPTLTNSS
# testName: GSK3 alpha biochemical assay (TR-FRET)
pIC50: −log10 of the molar value.
Property: pIC50; scope: individual compounds

Param readout = pIC50; param system = GSK3α (Homo sapiens (Human)); param query = CC1(C)CC(=O)C2=C(C1)Nc1ncsc1C21CCCCc2ccccc21 (stereo not drawn) ; response: value
< 5.30

Param readout = pIC50; param system = GSK3α (Homo sapiens (Human)); param query = CCC1(c2ccccc2)C2=C(CC(C)(C)CC2=O)Nc2nc(C)sc21 (stereo not drawn) ; response: value
< 5.30

Param readout = pIC50; param system = GSK3α (Homo sapiens (Human)); param query = CC1(C)CC(=O)C2=C(C1)Nc1ncsc1C21CCCc2ccccc21 (stereo not drawn) ; response: value
< 5.30

====

Property: Human Liver Microsomal Stability, % remaining; scope: individual compounds
# testName: Liver microsomal stability, human
# Type: in vitro ADME
# testSettings: 1 μM, 60 minutes at 37° C.
Your answer is read as %, so omit the unit and give the number.

Here are 5 compounds together with their reported answers.
CC[C@@]1(c2ccccc2)C2=C(CC(C)(C)CC2=O)Nc2ncsc21 [drawing 173]; 6.6
CC[C@@]1(c2cccc(C)c2)C2=C(CC(C)(C)CC2=O)Nc2ncsc21 [drawing 176]; 0.7
CC[C@@]1(c2cccc(F)c2)C2=C(CC(C)(C)CC2=O)Nc2ncsc21 [drawing 174]; 2.4
CC1(C)CC(=O)C2=C(C1)Nc1n[nH]cc1[C@]2(C)c1ccccc1 [drawing 178]; 100
CC1(C)CC(=O)C2=C(C1)Nc1ncsc1[C@]2(C)c1ccccc1 [drawing 172]; 17.7

# get_value(readout='Human Liver Microsomal Stability, % remaining', item= CC[C@@]1(c2cccc(OC)c2)C2=C(CC(C)(C)CC2=O)Nc2ncsc21 )
1.6

# get_value(readout='Human Liver Microsomal Stability, % remaining', item= CC[C@@]1(c2ccccc2)C2=C(CC(C)(C)CC2=O)Nc2n[nH]cc21 [drawing 179] )
95

====

# targetOrTestSystem: GSK3β (Homo sapiens (Human), UniProt P49841)
# testName: Mobility shift microfluidics assay
# Assay type: biochemical
# testSettings: 4.3 μM ATP, 60 minutes at room temperature
observationType: pIC50
Just the number, please; pIC50 means minus log10 of the concentration in mol/L.

Here are 3 molecules together with their reported answers.
CC1(C)CC(=O)C2=C(C1)Nc1ncsc1[C@]2(C)c1cccc(F)c1; 6.34
CC[C@@]1(c2ccccc2)C2=C(CC(C)(C)CC2=O)Nc2n[nH]cc21 [drawing 170]; 6.29
CC1(C)CC(=O)C2=C(C1)Nc1ncsc1[C@@]2(C)c1cccc(F)c1; 4.90

// next item, pIC50 requested
# get_value(readout='pIC50', item= CC[C@@]1(c2cccc(C)c2)C2=C(CC(C)(C)CC2=O)Nc2ncsc21 [drawing 163] )
6.61

====

Property: Plasma Stability (Human, % remaining); scope: individual compounds
# testName: Plasma stability, human
# Assay type: in vitro ADME
# testSettings: human plasma, 5 μM, 5 hours at 37° C.
Your answer is read as %, so omit the unit and give the number.

CC[C@@]1(c2ccccc2)C2=C(CC(C)(C)CC2=O)Nc2ncsc21 [drawing 173]; 100
CC[C@@]1(c2cccc(F)c2)C2=C(CC(C)(C)CC2=O)Nc2ncsc21 [drawing 174]; 99.2

# get_value(readout='Plasma Stability (Human, % remaining)', item= CC[C@@]1(c2cccc(OC)c2)C2=C(CC(C)(C)CC2=O)Nc2ncsc21 )
98.3

====

Property: pIC50; scope: individual compounds
# targetOrTestSystem: GSK3β (Homo sapiens (Human), UniProt P49841)
# testName: GSK3 beta biochemical assay (TR-FRET)
Just the number, please; pIC50 means minus log10 of the concentration in mol/L.

Here are 6 compounds together with their reported answers.
CCC1(c2cccc(Br)c2)C2=C(CC(C)(C)CC2=O)Nc2ncsc21 (stereo not shown); 6.63
CCC1(c2ccccc2)C2=C(CC3(CCCC3)CC2=O)Nc2ncsc21 (stereo not shown); 6.44
CCC1CC(=O)C2=C(C1)Nc1ncsc1C2(CC)c1ccccc1 (stereo not shown); 6.23
CCC1(c2ccccc2)C2=C(Nc3ncsc31)C(C)CC(C)C2=O (stereo not shown); 6.45
CCC1(c2ccccc2)C2=C(Nc3ncsc31)C(C)(C)CCC2=O (stereo not shown); 6.20
CCC1(c2ccc(C)cc2)C2=C(CC(C)(C)CC2=O)Nc2ncsc21 (stereo not shown); 6.21

# get_value(readout='pIC50', item= CCC1(c2ccccc2)C2=C(CCC(C)(C)C2=O)Nc2ncsc21 (stereo not shown) )
6.02

# get_value(readout='pIC50', item= CCC1(c2ccccc2)C2=C(CC(CC(C)C)CC2=O)Nc2ncsc21 (stereo not shown) )
6.19

# get_value(readout='pIC50', item= CCC1(c2ccccc2)C2=C(CC(C(C)C)CC2=O)Nc2ncsc21 (stereo not shown) )
6.03
